- system: human CCR6 (Homo sapiens, UniProt P51684)
- Construct: expressed in transfected cells; host or cells: HEK-293
- Sequence (P51684 whole entry): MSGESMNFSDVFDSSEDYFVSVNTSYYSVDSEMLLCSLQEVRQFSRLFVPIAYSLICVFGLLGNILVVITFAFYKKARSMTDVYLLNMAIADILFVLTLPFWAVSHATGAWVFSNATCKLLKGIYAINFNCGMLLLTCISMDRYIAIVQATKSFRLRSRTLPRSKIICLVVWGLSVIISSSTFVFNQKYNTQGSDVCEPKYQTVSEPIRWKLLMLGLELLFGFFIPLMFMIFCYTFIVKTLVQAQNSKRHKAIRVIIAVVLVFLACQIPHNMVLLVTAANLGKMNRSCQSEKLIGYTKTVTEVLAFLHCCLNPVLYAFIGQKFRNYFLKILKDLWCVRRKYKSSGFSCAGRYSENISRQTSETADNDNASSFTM
- method summary: FLIPR assay (inhibition of CCL20-induced calcium signal)
- Assay type: cell-based
- cond: HEK-293 cells expressing human CCR6; mean values where determined several times; read-out: FLIPR IC50
I'd be grateful if you could share measured pIC50 for these entries.
pIC50 (log units): -log10 of the concentration in mol/L.

Query block: Please indicate pIC50 recorded for CCN1CC(c2nc(-c3cncc([C@@](O)(c4ccc(C(C)C)cc4)C4(C)CN(C)C4)c3)no2)CC1=O (single isomer, unassigned) [Example 510]
Result block: 6.73

Query block: Output measured pIC50 for this item: CC(C)c1ccc([C@](O)(c2cnnc(C3CCOCC3)c2)C2(C)CN(C)C2)cc1
Result block: 6.22

Query block: State its pIC50: CC(C)c1ccc([C@](O)(c2cncc(-c3noc(C4CC(=O)N(C)C4)n3)c2)C2(C)CN(C)C2)cc1 (single isomer, unassigned)
Result block: 6.68

Query block: Recall and state the measured pIC50 for CC(C)c1ccc([C@](O)(c2cncc(-c3noc(C4CCNC(=O)C4)n3)c2)C2(C)CN(C)C2)cc1 (single isomer, unassigned) [Example 515] .
Result block: 6.74

Query block: Determine its reported pIC50: Cc1ccc(C(C)(O)C#Cc2cncc([C@@](O)(c3ccc(C(C)C)cc3)C3(C)CN(C)C3)c2)s1 (stereo partly shown)
Result block: 7.80

Query block: Query pIC50 for CC(C)c1ccc([C@](O)(c2cncc(C3CCOCC3)c2)C2(C)CN(C)C2)cc1
Result block: 6.95

Query block: Output measured pIC50 for this item: CCCN1CC(C)([C@](O)(c2ccc(C(C)C)cc2)c2cncc(-c3noc(C4CCN(C(C)=O)CC4)n3)c2)C1
Result block: 6.89

Query block: Give the reported pIC50 for this compound. Cc1nc(C)n(CCOc2cncc([C@@](O)(c3ccc(C(C)C)cc3)C3(C)CN(C)C3)c2)n1
Result block: 6.11

Query block: Provide measured pIC50 value, entry: CC(=O)N1CCC(c2nc(-c3cncc([C@@](O)(c4ccc(OC5CCC5)cc4)C4(C)CN(C)C4)c3)no2)CC1
Result block: 6.12

Query block: Identify pIC50 associated with the compound CC(C)c1ccc([C@](O)(c2cncc(N3CC4OCCC4C3=O)c2)C2(C)CN(C)C2)cc1 (mixture of isomers)
Result block: 6.49

Query block: Provide only the value of recorded pIC50 for CC(C)c1ccc([C@](O)(c2cncc(N3CC[C@H](CO)C3)c2)C2(C)CN(C)C2)cc1
Result block: 6.88

Query block: Identify the reported pIC50 for the following entry. Cc1nn(C)cc1C(O)CCc1cncc([C@@](O)(c2ccc(C(C)C)cc2)C2(C)CN(C)C2)c1 (stereo partly shown)
Result block: 6.36

Query block: Read off the recorded pIC50 for CC(C)c1ccc([C@](O)(c2cnnc(Oc3ccccc3CCO)c2)C2(C)CN(C)C2)cc1
Result block: 5.98

Query block: For the compound CC(C)c1ccc([C@](O)(c2cnnc(N3CC(c4ccccc4)CC3=O)c2)C2(C)CN(C)C2)cc1 (stereo partly shown) , give its measured pIC50 value.
Result block: 7.45

Query block: # return recorded pIC50 for entry CCN1CC(C)([C@](O)(c2ccc(OC(F)(F)F)cc2)c2cncc(N3CCCC3)c2)C1
Result block: 7.55

Query block: Given the compound CC1CN(Cc2noc(-c3cncc([C@@](O)(c4ccc(C(C)C)cc4)C4(C)CN(C)C4)c3)n2)CC(C)O1 (stereo partly shown) , write its reported pIC50.
Result block: 6.79

Query block: Give a short answer stating reported pIC50 for CC(C)c1ccc([C@](O)(c2cncc(-c3noc([C@@H]4CNC4=O)n3)c2)C2(C)CN(C)C2)cc1 .
Result block: 6.85

Query block: Tell me its pIC50 given CC(C)c1ccc([C@](O)(c2cncc(C#CC3(O)C(=O)N(C)c4ccccc43)c2)C2(C)CN(C)C2)cc1 (stereo partly shown) as the entry.
Result block: 7.23

Query block: Complete the entry with pIC50 for CC(C)c1ccc(C(O)(c2cncc(C3=CCCC3)c2)C2(C)CN(C)C2)cc1 (stereo not shown)
Result block: 7.47

Query block: Provide only the value of recorded pIC50 for Cc1cccc(C(C)(O)C#Cc2cncc([C@@](O)(c3ccc(C(C)C)cc3)C3(C)CN(C4CC4)C3)c2)n1 (stereo partly shown)
Result block: 7.37

Query block: Note pIC50 for the compound shown: CC(C)Cc1ccc([C@](O)(c2cncc(-c3noc(C(C)(C)O)n3)c2)C2(C)CN(C)C2)cc1
Result block: 7.12

Query block: Tell me pIC50 reported for CC(=O)N1CCC[C@@H](c2nc(-c3cncc([C@@](O)(c4ccc(C(C)C)cc4)C4(C)CN(C)C4)c3)no2)C1
Result block: 6.97

Query block: Tell me measured pIC50 for CC(C)c1ccc([C@](O)(c2cncc(-c3noc(C4(O)CC4)n3)c2)C2(C)CN(C)C2)cc1 please.
Result block: 7.23

Query block: Report measured pIC50; entry is CC(C)c1ccc([C@](O)(c2cncc(C#CC3(O)CCCc4cccnc43)c2)C2(C)CN(C)C2)cc1 (stereo partly shown)
Result block: 7.38

Query block: Give the reported pIC50 for this compound. CC(=O)N1CCC(F)(c2nc(-c3cncc([C@@](O)(c4ccc(C(C)C)cc4)C4(C)CN(C)C4)c3)no2)CC1
Result block: 7.18

Query block: Quick one: give measured pIC50 for CC(C)c1ccc([C@](O)(c2cncc(-c3noc(C4CCN(C(=O)C5CCCC5)CC4)n3)c2)C2(C)CN(C)C2)cc1
Result block: 7.40

Query block: Give the value of pIC50 reported for the following: COCC(=O)NC(C)(C)C#Cc1cncc([C@@](O)(c2ccc(C(C)C)cc2)C2(C)CN(C)C2)c1
Result block: 6.63

Query block: Recall and state the measured pIC50 for CCC(O)(CCc1cncc(C(O)(c2ccc(C(C)C)cc2)C2(C)CN(C)C2)c1)c1cccc(OC)n1 (stereo not shown) .
Result block: 7.98

---

- system: human CCR6 (Homo sapiens)
- Construct: expressed in transfected cells; host or cells: HEK-293
- method summary: FLIPR assay (inhibition of CCL20-induced calcium signal)
- Format: cell-based
- cond: HEK-293 cells expressing human CCR6; mean values where determined several times; read-out: FLIPR IC50
value type: pIC50
Note: pIC50 values are expressed as the negative base-10 logarithm of concentration in M.

Query block: # return recorded pIC50 for entry CC(C)c1ccc(C(O)(c2cncc(CCC(C)(O)c3ccccc3)c2)C2(C)CN(C)C2)cc1 (stereo not drawn)
Result block: 8.04

Query block: Output pIC50 of CCc1cncc([C@@](O)(c2ccc(C(C)C)cc2)C2(C)CN(C)C2)c1
Result block: 7.22

Query block: Recall and state the measured pIC50 for Cc1cccc(C(C)(O)C#Cc2cncc([C@@](O)(c3ccc(C(C)(C)C)cc3)C3(C)CN(C)C3)c2)n1 (stereo partly drawn) .
Result block: 7.06

Query block: Please report the measured pIC50 for CC(=O)N1CCC(Cc2nc(-c3cncc([C@@](O)(c4ccc(C(C)C)cc4)C4(C)CN(C)C4)c3)no2)CC1
Result block: 7.16

Query block: Read the entry CC(C)c1ccc([C@](O)(c2cnnc(CCC3(O)CCCc4cccnc43)c2)C2(C)CN(C)C2)cc1 (stereo partly drawn) and write its reported pIC50.
Result block: 6.72

Query block: Assign pIC50 to the following record: CCC1(c2nc(-c3cncc([C@@](O)(c4ccc(C(C)C)cc4)C4(C)CN(C)C4)c3)no2)CCN(C(C)=O)CC1
Result block: 7.26

Query block: Name the recorded pIC50 of the compound listed here: CC(=O)N1CCCC(C)(c2nc(-c3cncc([C@@](O)(c4ccc(C(C)C)cc4)C4(C)CN(C)C4)c3)no2)C1 (stereo partly drawn)
Result block: 7.25

Query block: # return recorded pIC50 for entry CC(=O)N1CCC(C#Cc2cncc([C@@](O)(c3ccc(C(C)C)cc3)C3(C)CN(C)C3)c2)CC1
Result block: 7.17

Query block: Return value of pIC50 for input CC(C)c1ccc([C@](O)(c2cncc(N3C[C@H](C)O[C@@H](C)C3)c2)C2(C)CN(C)C2)cc1 , no commentary.
Result block: 7.35

Query block: Complete the entry with pIC50 for CC(C)c1ccc([C@](O)(c2cncc(-c3noc(C4(C)CCC(=O)NC4)n3)c2)C2(C)CN(C)C2)cc1 (stereo partly drawn)
Result block: 6.89

Query block: // fetch pIC50 given entry CC(C)c1ccc([C@](O)(c2cncc(C3CCCO3)c2)C2(C)CN(C)C2)cc1 (stereo partly drawn)
Result block: 6.81

Query block: Specify reported pIC50 for the compound shown: CC(=O)N1CCC(c2nc(-c3cncc([C@@](O)(c4ccc(C(C)C)cc4)C4(C)CN(CC5CC5)C4)c3)no2)CC1
Result block: 6.95

Query block: Note down pIC50 recorded for CN1CC(C)([C@](O)(c2ccc(CC(F)(F)F)cc2)c2cncc(-c3noc(C(C)(C)O)n3)c2)C1
Result block: 6.83

Query block: # return recorded pIC50 for entry CC(C)c1ccc([C@](O)(c2cncc(CC#CO)c2)C2(C)CN(C)C2)cc1
Result block: 7.15

Query block: Consider the compound CC(C)c1ccc([C@](O)(c2cncc(N3CCC(O)CC3)c2)C2(C)CN(C)C2)cc1 and give its recorded pIC50.
Result block: 6.53
